# Tested on: MCF7
# ASSAY: NCI tumour cell line growth inhibition, 48 h
Activity calls are given as the source filed them. No stated cut-off is given here; in the data, active = GI50 up to about 1.1 µM and inactive = higher.
Thanks in advance; please answer with one of these: active, inactive

[in] Outcome? `CC(=O)CSc1c(-c2ccccc2)c(=O)n(-c2ccccc2)c(=S)n1-c1ccccc1`
[out] inactive

[in] Note, next up: `N#CC(c1ccccc1)(c1ccccc1)[C@@H](c1ccccc1)[C@H](Cc1ccccc1)NS(=O)(=O)c1ccccc1`
[out] inactive

[in] Note, next up: Cc1cc(C)nc(SC(C)C(=O)N/N=C/c2ccc(OCc3ccccc3)cc2)n1 (centres undefined)
[out] inactive

[in] Note, next up: `COC(=O)[C@H](Cc1c[nH]c2ccccc12)NC(=O)c1ccc(CNC(=O)/C(C)=C/c2ccccc2)cc1`
[out] inactive

[in] Note, next up: `CC1(C)OC[C@@H]([C@@]2(COC(c3ccccc3)(c3ccccc3)c3ccccc3)CC=CC(=O)O2)O1`
[out] inactive

[in] Note, next up: c1ccc(C(NC2CCCCC2NCCNC2CCCCC2NC(c2ccccc2)(c2ccccc2)c2ccccc2)(c2ccccc2)c2ccccc2)cc1 (centres undefined)
[out] inactive

[in] Note, next up: CC1(C)[C@H]2CC[C@@]13C(=O)N1C(=O)O[C@@H]([C@H]1Cl)C(Cl)(COCc1ccccc1)C(=O)OCCO[C@H]3C2 (some centres undefined)
[out] inactive

[in] Note, next up: CC(=O)c1ccc2c(c1)CC1(C2)Cc2cc3c(cc2C1)C(=O)CC3 (centres undefined)
[out] active

[in] Note, next up: `COC(=O)c1sc2c(=O)c(C(=O)OC)c(C(=O)OC)sc2c(=O)c1C(=O)OC`
[out] inactive

[in] Note, next up: CCOP(=O)(OCC)C(NC(=O)OCC(Cl)(Cl)Cl)n1nnc(C(=O)OC)c1C(=O)OC (centres undefined)
[out] inactive

[in] Note, next up: `O=[N+]([O-])c1cc2c([N+](=O)[O-])cccc2o1`
[out] inactive

[in] Note, next up: `CCOC(=O)/C(=C\NC[C@@H](C)O)c1nc2ccccc2[nH]1`
[out] inactive

[in] Note, next up: Cc1cc(C)c2c(c1)C(=O)C1(C2)Cc2c(ccc(C)c2C)C1=O (centres undefined)
[out] inactive

[in] Note, next up: `Cn1c(/C=C/CO)c(CO)c2c1C(=O)C=C(N1CC1)C2=O`
[out] active

[in] Note, next up: CC1(C)CCN2C(=O)C34CCCC3CC21S4 (centres undefined)
[out] inactive

[in] Note, next up: `Cc1cn(CC2=NCCCN2)c(=O)[nH]c1=O`
[out] inactive

[in] Note, next up: `Nc1ccccc1C#CC(=O)c1cccc(C(F)(F)F)c1`
[out] inactive

[in] Note, next up: `Cc1cccc2c(=O)c3c(O)cc4c(c3n(C)c12)C=CC(C)(C)O4`
[out] inactive

[in] Note, next up: `CN(Cc1ccccc1)/C(=N\C#N)N(Cc1ccccc1)Cc1ccccc1`
[out] inactive

---

# System: K562
# ASSAY: NCI tumour cell line growth inhibition, 48 h
The source made the active and inactive calls. Rule as the data show it: active = GI50 up to about 1.1 µM and inactive = higher.
Thanks in advance; please answer with one of these: true for active, false for inactive

[in] Outcome? CCOP(=O)(OCC)C(NC(=O)OCC(Cl)(Cl)Cl)n1nnc(C(=O)OC)c1C(=O)OC (stereo unspecified)
[out] false

[in] Note, next up: Cc1ccc(S(=O)(=O)OC2CC(C(C)(C)C)CCC2c2ccccc2)cc1 (stereo unspecified)
[out] false

[in] Note, next up: C=CCC1(OCc2ccccc2)C(=O)C(=O)OC1C1COC(C)(C)O1 (stereo unspecified)
[out] false

[in] Note, next up: `CN(C)CCN1N=Nc2cccc3cccc1c23`
[out] false

[in] Note, next up: `O=c1[nH]c(-c2ccccc2)nc2c1sc1nc3ccccc3n12`
[out] false

[in] Note, next up: `N#CCc1nc(-c2cc3c(ccc4ccccc43)oc2=O)cs1`
[out] false

[in] Note, next up: `CO/N=C\c1cc(O)c(O)c(/C=N/OC)c1`
[out] false

[in] Note, next up: CN1C(=O)C(=O)c2cc3c(c4c2c1cc1ccccc14)OCO3 [CEPHARADIONE A]
[out] false

[in] Note, next up: CC1(C)OC2C(CO)OC(n3ccc(N)nc3=O)C2O1 (stereo unspecified)
[out] false

[in] Note, next up: COC1C(O)C(O[C@H]2CC[C@@]3(C)C(CC[C@@H]4[C@@H]3CC[C@]3(C)[C@@H](C(C)OC5OC(CO)C(O)C(O)C5O)CC[C@]43O)C2)OC(C)C1OC1OC(CO)C(O)C(O)C1O (stereo partly specified)
[out] false

[in] Note, next up: `Nc1nc(Cl)c(/C=N\O)c(NCC2(CO)CCC2)n1`
[out] false

[in] Note, next up: C/C(=N/O)C1CC=C(S(=O)(=O)c2ccccc2)C1 (stereo unspecified)
[out] false

[in] Note, next up: `Cc1cc([N+](=O)[O-])c(C)c2c1[nH]c1ccc(Cl)cc12`
[out] false

[in] Note, next up: `CCOC(=O)c1ccc(/N=N\c2ccc(N(CCC#N)CCC#N)cc2C)cc1`
[out] false

[in] Note, next up: `CC[N+](CC)(CC)Cc1cn(S(=O)(=O)c2ccccc2)c2ccccc12`
[out] false

[in] Note, next up: `CCOC(=O)c1cnc2c(ccc3ncccc32)c1OCC`
[out] false

[in] Note, next up: `CNCCN[C@@H]1c2cc3c(cc2[C@@H](c2cc(OC)c(O)c(OC)c2)[C@H]2C(=O)OC[C@@H]21)OCO3`
[out] true

[in] Note, next up: `COc1cc(C)c(O)c(C(=O)O)c1`
[out] false

[in] Note, next up: C=C1CC(Cn2cc(C)c(=O)[nH]c2=O)(c2ccc(Cl)cc2)OC1=O (stereo unspecified)
[out] true

[in] Note, next up: `c1ccc(/N=C2\c3ccsc3/C(=N/c3ccccc3)c3ccsc32)cc1`
[out] false

[in] Note, next up: CC1CCN(CCC(=O)CC(c2ccccc2)c2c(O)c3ccccc3oc2=O)CC1 (stereo unspecified)
[out] false

[in] Note, next up: `CC1(C)OC[C@@H]([C@@]2(COC(c3ccccc3)(c3ccccc3)c3ccccc3)CC=CC(=O)O2)O1`
[out] false

[in] Note, next up: `O=C(/C=C/c1cccc(Oc2ccccc2)c1)NCc1ccc(C(=O)NCCc2ccccc2)cc1`
[out] false

[in] Note, next up: `Cc1nc(N)sc1C(=O)/C=C\c1ccc2c(c1)OCO2`
[out] false

[in] Note, next up: `O=[N+]([O-])c1ccc(C(c2c[nH]c3ccccc23)c2c[nH]c3ccccc23)cc1`
[out] false

[in] Note, next up: `O=C1OC(c2ccccc2)(c2ccccc2)c2ccc3ccc(F)cc3c21`
[out] false

[in] Note, next up: `Nc1[nH]c(Nc2ccc(Cl)c(Cl)c2)nc2ncnc1-2`
[out] false

[in] Note, next up: `CSc1ccc(/C=C2\N=C(c3ccccc3)N(/N=C3\C(=O)Nc4ccccc43)C2=O)cc1`
[out] false

[in] Note, next up: `Nc1ccccc1Nc1ccccc1C(=O)[O-].Nc1ccccc1Nc1ccccc1C(=O)[O-].[Zn+2]`
[out] false

[in] Note, next up: `O=C(NCc1cccnc1)NCc1cccnc1`
[out] false

[in] Note, next up: CC1=CCC2CC1NC(=O)CCOCCC(=O)NC2(C)C (stereo unspecified)
[out] false

[in] Note, next up: CC[N+]1(C)CCC(O)(c2ccc(OC)cc2)C(C(=O)c2ccc(OC)cc2)C1 (stereo unspecified)
[out] false

[in] Note, next up: O=C1NC2C(CCO)CC=C[C@H]2c2cc3c(cc21)OCO3 (stereo partly specified)
[out] false

[in] Note, next up: O=C(Oc1ccc(OC(Oc2ccccc2)c2ccccc2)cc1)c1ccccc1 (stereo unspecified)
[out] false

[in] Note, next up: `O=C(O)C(F)(F)C(F)(F)C(F)(F)C(F)(F)C(=O)O`
[out] false

[in] Note, next up: `C[C@@H](C[C@@H](O)[C@H](O)C(C)(C)O)[C@H]1CC=C2[C@]3(C)[C@H](O)C[C@H]4C(C)(C)[C@H](O)CC[C@]4(C)[C@H]3CC[C@@]21C`
[out] false

[in] Note, next up: NC(Cc1ncccn1)C(=O)O (stereo unspecified)
[out] false

[in] Note, next up: Cc1c(C)n(-c2ccccc2)c2nc([S+](C)[O-])nc([S+](C)[O-])c12 (stereo unspecified)
[out] false

[in] Note, next up: `Cc1cn(CC2=NCCCN2)c(=O)[nH]c1=O`
[out] false

[in] Note, next up: CCOP(=O)(OCC)C(Nc1ccc(Br)cc1)c1cccc([N+](=O)[O-])c1 (stereo unspecified)
[out] false

[in] Note, next up: Cc1ccc(C)c(N2C(=O)C(=O)C(c3nc4ccccc4o3)/C(=N\NC(=O)c3ccccc3O)C2=O)c1 (stereo unspecified)
[out] false
